target.or.test.system: T1, Nrd1 CID R133A (S. cerevisiae, UniProt P53617 1-153, R133A)
T1 construct: the construct for anisotropy is made as described previously (Kubicek et al, 2012); also called CID(R133A)-His6; source: recombinant, produced and purified as described previously (Kubicek et al, 2012); plasmid with T7 promoter
T1 sequence (looked up): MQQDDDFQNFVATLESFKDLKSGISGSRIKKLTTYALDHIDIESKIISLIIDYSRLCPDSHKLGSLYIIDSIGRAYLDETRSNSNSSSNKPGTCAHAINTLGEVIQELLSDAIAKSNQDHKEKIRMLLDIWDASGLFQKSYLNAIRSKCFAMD
experiment.summary: fluorescence polarisation; fluorescence anisotropy, equilibrium binding of Nrd1 CID variants to FAM-labelled NIM peptides; 10°C, 50 mM Na2HPO4, 100 mM NaCl, pH 8; 1:1 model with non-specific binding (DynaFit)
condition.info: both partners purified
Ends that are not written are not given here. FAM = 5,6-carboxyfluorescein
quantity.name: Kd (nM)
Numbers only, in nM.

Per the records, this binder ( {FAM}-DDDEDDYTPSIS (peptide, UniProt Q00416 2052-2063, looked up, Sen1, S. cerevisiae, fragment harbouring aa 2,052-2,063; source: synthetic peptide) [Sen1 NIM peptide (Sen1 aa 2,052-2,063)] ) has Kd equal to 1800

Hello, the source for this data is paper PMC7110113, in case you need it.
